Tested on: Boll Weevil (Anthonomus grandis)
Experiment: Action on boll weevil, egg and larval mortality on insect diet in microtiter plates
Type: in vivo
Conditions: 120 h, A. grandis eggs on insect diet, egg and larval mortality after 5 days, read-out: mortality in comparison with untreated controls
Below, each of the molecules is paired with its reported mortality at 800 ppm value.
Endpoint Name: mortality at 800 ppm

{"Molecule": "Cc1cc(/C=N/N2C(=O)CS/C2=N\\c2ccccc2C(C)C)ccc1-n1cc(NC(=O)c2ccc(OC(F)(F)F)cc2)c(C)n1 [Compound C-11]", "Target System": "Boll Weevil (Anthonomus grandis)", "Endpoint Name": "mortality at 800 ppm", "Value Measured": "≥ 75%"}
{"Molecule": "Cc1nn(-c2ccc(/C=N/NC(=S)Nc3ccccc3C(C)C)cc2)cc1C(=N)Nc1ccc(OC(F)(F)F)cc1 [Compound C-52]", "Target System": "Boll Weevil (Anthonomus grandis)", "Endpoint Name": "mortality at 800 ppm", "Value Measured": "≥ 75%"}
{"Molecule": "Cc1nn(-c2ccc(/C=N/NC(=S)Nc3ccccc3C(C)C)cc2)cc1NC(=O)c1ccc2c(c1)OC(F)(F)O2 [Compound C-16]", "Target System": "Boll Weevil (Anthonomus grandis)", "Endpoint Name": "mortality at 800 ppm", "Value Measured": "≥ 75%"}
{"Molecule": "Cc1nn(-c2ccc(/C=N/N=C3\\SCC(=O)N3c3ccccc3C(C)C)cc2)cc1NC(=O)c1ccc2c(c1)OC(F)(F)O2 [Compound C-17]", "Target System": "Boll Weevil (Anthonomus grandis)", "Endpoint Name": "mortality at 800 ppm", "Value Measured": "≥ 75%"}
{"Molecule": "Cc1nn(-c2ccc(/C=N/N3C(=O)CS/C3=N\\c3ccccc3C(C)C)cc2)cc1C(=N)Nc1ccc(OC(F)(F)F)cc1 [Compound C-53]", "Target System": "Boll Weevil (Anthonomus grandis)", "Endpoint Name": "mortality at 800 ppm", "Value Measured": "≥ 75%"}
